# TEST NAME: protein stability index of a GFP-peptide fusion (yeast GPS) (PSI 1-4); higher = more stable; sorted into four equal gates, so the index is relative within each strain
# ASSAY CONTEXT: ubr1∆
PROPERTY MEASURED: protein stability index
Answers are plain numbers.

[
  {
    "SEQ STRING": "VLGTPDQKIWPYLEKYP [SSN3]",
    "protein stability index": 2.13
  },
  {
    "SEQ STRING": "LPVKHPELFESLGIAQP [RPT6]",
    "protein stability index": 2.73
  },
  {
    "SEQ STRING": "LYQSKGRYMEALALYVD [SRP68]",
    "protein stability index": 2
  },
  {
    "SEQ STRING": "DKHLYHVLYKESKGNAF [RPL19A]",
    "protein stability index": 2.77
  },
  {
    "SEQ STRING": "QALIHGLNRHYYSLNID [RPN11]",
    "protein stability index": 2.42
  },
  {
    "SEQ STRING": "PDNSIFGDTKSESKQLG [SWI3]",
    "protein stability index": 3.37
  }
]

Quick batch: protein stability index for everything below.
1. TNNEQLQQELATTQDQV [NUT2]
2. SKSKQSFTQGELNDLKW [YMR129W/POM152]
3. RLGDLGVIDDSFDVAIS [SMC4]
4. GEMVGVLAAQSIGEPAT [RPO21]
5. QRDLYKRKEELVSTLTT [SMC2]
6. RRSTPFSKIAEYYRIQK [ESC2]
7. ALLIAGHDADDGYQLFH [PUP2]
8. ESNVNDSDMLTKSHNTV [NUT1]

[3.19, 2.75, 1.98, 2.58, 1.82, 2.94, 2.66, 3.43]

---

# TEST NAME: protein stability index of a GFP-peptide fusion (yeast GPS) (PSI 1-4); higher = more stable; sorted into four equal gates, so the index is relative within each strain
# ASSAY CONTEXT: doa10∆
Lab note: compare protein stability index against 3. Equal or greater, write 1 (yes). Smaller, write 0 (no).

[
  {
    "SEQ STRING": "IADLDTEAEETSIHSTI [RRP43]",
    "CLASS NAME": "1 (yes)"
  }
]

Identify whether the reported protein stability index of the following sequence is 3 or greater: RGVDAGKGNTFEKVGSH [RPN14]
0 (no)

Identify whether the reported protein stability index of the following sequence is 3 or greater: GTGNNNKLNFIVDDKQE [DIB1]
0 (no)

Identify whether the reported protein stability index of the following sequence is 3 or greater: KFQLKKVLCLAVAVGNV [RPL1A]
0 (no)

Identify whether the reported protein stability index of the following sequence is 3 or greater: YTLTEEGVEYLREYLNL [RPS10A]
1 (yes)

Identify whether the reported protein stability index of the following sequence is 3 or greater: DKDNPVDSRNETDHKTN [SRB4]
1 (yes)

Identify whether the reported protein stability index of the following sequence is 3 or greater: NEWIKAQEDVPYLLPYI [QCR7]
0 (no)

Identify whether the reported protein stability index of the following sequence is 3 or greater: EVTEEQAEATEWAEENA [RPS0A]
1 (yes)

Identify whether the reported protein stability index of the following sequence is 3 or greater: YQKEYETAERNIIQAKR [RPL7A]
0 (no)

Identify whether the reported protein stability index of the following sequence is 3 or greater: APIKKIIERYIKSKADA [PRP8]
1 (yes)

Identify whether the reported protein stability index of the following sequence is 3 or greater: RKQIDETQVLVSTPEKW [BRR2]
0 (no)

---

Kindly state protein stability index for each of the entries shown.
# TEST NAME: protein stability index of a GFP-peptide fusion (yeast GPS) (PSI 1-4); higher = more stable; sorted into four equal gates, so the index is relative within each strain
# ASSAY CONTEXT: ubr1∆
One number for each entry.

Quick batch: protein stability index for everything below.
1. LRLTEQKSPKIRDPLTQ [RPC82]
2. FEGCYYTPEESAWIWPM [RPC25]
3. KNDLFVIWSEDNDEKLI [RPO21]
4. FRCKETHSYNFMRQNLE [RPC82]
5. DHNALPQRCTFAFEAID [POP1]
6. SQYFKFKNDFNSFYYTS [RPN9]
7. RLYVKGKHLSYQRSKRV [RPL33A]

[1.92, 2.52, 2.44, 2.44, 3.09, 2.58, 2.46]

Look up protein stability index: NEQLTLLSKKHGQLKLS [RPN5]
2.4

---

# TEST NAME: protein stability index of a GFP-peptide fusion (yeast GPS) (PSI 1-4); higher = more stable; sorted into four equal gates, so the index is relative within each strain
# ASSAY CONTEXT: pdr5∆
PROPERTY MEASURED: protein stability index

Answered cases to consult:
[
  {
    "SEQ STRING": "MFTYSQETQHGNITRGL [RPN2]",
    "protein stability index": 3.12
  },
  {
    "SEQ STRING": "IAKSRYWYFLQKLHKVK [RPL20A]",
    "protein stability index": 3.06
  },
  {
    "SEQ STRING": "KKRSKVRKETYSSYIYK [HTB2]",
    "protein stability index": 3.33
  }
]

Quick batch: protein stability index for everything below.
1. TWRTQLAASEIGISIVG [ECM29]
2. GSNQKPKYEPPVQSKFG [RPT2]

1: 2; 2: 3

---

Kindly state protein stability index for each of the entries shown.
# TEST NAME: protein stability index of a GFP-peptide fusion (yeast GPS) (PSI 1-4); higher = more stable; sorted into four equal gates, so the index is relative within each strain
# ASSAY CONTEXT: pdr5∆

Answered cases to consult:
[
  {
    "SEQ STRING": "TSFGQPQSAPNQMGMGT [YOR098C/NUP1]",
    "OBS VALUE": 2.83
  },
  {
    "SEQ STRING": "HKDSFYDRATLTQLLSM [RPO31]",
    "OBS VALUE": 2.09
  },
  {
    "SEQ STRING": "KVVKTPGGILRAQHVKK [RPL34A]",
    "OBS VALUE": 2.83
  }
]

Quick batch: protein stability index for everything below.
1. ARSIDVEKGVNPTKSKE [ECM29]
2. EGEKCHPQDFGNPGRIR [SEC65]
3. KIGPLGLSPKKVGEDIA [RPL12A]

3.51
2.76
3.2

Quick batch: protein stability index for everything below.
1. DHNALPQRCTFAFEAID [POP1]
2. FAGEAGDTVQFAEYIQA [PRE1]
3. VTEETTKQIQSVRIDGR [SIR4]
4. EQKLIDQHVINILWAIY [YCS4]

1. 2.84
2. 1.74
3. 3.06
4. 2.28

Quick batch: protein stability index for everything below.
1. ELAKEAKKSTTISKEST [ESC2]
2. KDGEIMLWNLAAKKAMY [ASC1]
3. FISSGTSLLDSLISVLE [YJL039C/NUP192]

[2.47, 1.87, 2.27]

Look up protein stability index: PISKHSKQAIYTRAAAS [RPS25B]
2.63

---

# TEST NAME: protein stability index of a GFP-peptide fusion (yeast GPS) (PSI 1-4); higher = more stable; sorted into four equal gates, so the index is relative within each strain
# ASSAY CONTEXT: pdr5∆
Lab note: compare protein stability index against 3. Equal or greater, write Fulfilled. Smaller, write Not fulfilled.

Answered cases to consult:
[
  {
    "SEQ STRING": "SFYDAIFFNIPLVAHLG [YJL039C/NUP192]",
    "CLASS NAME": "Not fulfilled"
  },
  {
    "SEQ STRING": "HIQEEEEQDVDMTGDEE [RPC19]",
    "CLASS NAME": "Fulfilled"
  },
  {
    "SEQ STRING": "HICGICGLMTVIAKLNH [RPB2]",
    "CLASS NAME": "Not fulfilled"
  },
  {
    "SEQ STRING": "SGEPIIAATQDFITGSY [RPO31]",
    "CLASS NAME": "Fulfilled"
  },
  {
    "SEQ STRING": "VSFNDSQSMVTNKENNI [YIL149C/MLP2]",
    "CLASS NAME": "Fulfilled"
  }
]

Identify whether the reported protein stability index of the following sequence is 3 or greater: RMLLNLCKSATTKMWPT [BRR2]
Not fulfilled

Identify whether the reported protein stability index of the following sequence is 3 or greater: GGKSVGFGLVYNSVAEA [RPS24A]
Fulfilled

---

Kindly state protein stability index for each of the entries shown.
# TEST NAME: protein stability index of a GFP-peptide fusion (yeast GPS) (PSI 1-4); higher = more stable; sorted into four equal gates, so the index is relative within each strain
# ASSAY CONTEXT: pdr5∆
One number for each entry.

Answered cases to consult:
[
  {
    "SEQ STRING": "SKLDYIFKDKEKLVSDL [SMC1]",
    "protein stability index": 3.24
  },
  {
    "SEQ STRING": "EVYMRYRNFMVNSYRLN [SWI3]",
    "protein stability index": 1.62
  },
  {
    "SEQ STRING": "VNLSEVMTVPGIDPTRI [RPO21]",
    "protein stability index": 3.07
  },
  {
    "SEQ STRING": "RVLTQDGRVYIGQLMAF [SMB1]",
    "protein stability index": 3.26
  },
  {
    "SEQ STRING": "FEGCYYTPEESAWIWPM [RPC25]",
    "protein stability index": 2.3
  },
  {
    "SEQ STRING": "IRGNLMGKRVDFSARTV [RPO21]",
    "protein stability index": 2.76
  },
  {
    "SEQ STRING": "NLTYYNEKLECISLGST [ITC1]",
    "protein stability index": 2.39
  },
  {
    "SEQ STRING": "DLIETSFTCFAQFVSNK [NUT1]",
    "protein stability index": 2.01
  },
  {
    "SEQ STRING": "RNEKRMFLEFQSTQTDL [SMC2]",
    "protein stability index": 2.48
  },
  {
    "SEQ STRING": "EMINEQKLPQYIIQGSN [RGR1]",
    "protein stability index": 2.96
  }
]

Quick batch: protein stability index for everything below.
1. FAQGKRRYDRKQSGFGG [RPL42A]
2. KLYDAKRYTSEGTRNRF [YMR129W/POM152]
3. AFAFCIPVYCFSHPAHQ [YCG1]
4. SFSDENSDDFFMDNSYD [ESC2]

3.57
3.15
1.81
1.8

Just for reference, the supplement of paper PMC9732359 is where these values come from.
